- Tested on: MOLT-4 leukemia
- test-name: NCI-60 one-dose screen, 48 h (100 = growth as untreated, 0 = no growth, -100 = all killed)
- assay-conditions: 10 µM unless noted
Compounds without any hit were thinned out: in the full panel of roughly 83,000, 20% have a hit.
Label condition met when growth is strictly below 30%; at or above that, label condition not met.

Worked cases, answers included:
INSERT INTO assay_data (compound, answer_label) VALUES
  ('C=CCn1cc(-c2nc3ccccc3s2)c2cc(-c3ccc4c5c(cccc35)C(=O)N(CCN3CCNCC3)C4=O)ccc21', 'condition not met'),
  ('O=c1ccn(C2CC(O)C(O)C(CO)O2)c(=O)[nH]1 (stereo not given)', 'condition not met'),
  ('O=C(O)COc1ccc(-c2cssc2=S)cc1', 'condition not met'),
  ('COc1ccc(C(=O)N2NC(=O)/C(=C/c3ccc(Br)cc3)N=C2c2ccccc2)cc1', 'condition met'),
  ('Cc1ccc(-c2cc3nc(C(Cl)Cl)nc(-c4ccccc4C)n3n2)cc1', 'condition not met');

Here is another compound to look at.
(Q) Hello, is growth of the following compound strictly smaller than 30%? CCO/C=N/C1=C(C#N)C(c2ccc(Cl)cc2)c2c(c3ccc(C)cc3[nH]c2=O)O1 (stereo not given)
(A) condition not met

###

- Test system: A498 renal
- test-name: NCI-60 one-dose screen, 48 h (100 = growth as untreated, 0 = no growth, -100 = all killed)
- assay-conditions: 10 µM unless noted
The panel holds about 83,000 compounds, 20% with a hit somewhere; the sample as a whole holds those more often.
If the reported growth equals or exceeds 30%, assign 1.0. If not, assign 0.0.

These solved cases illustrate the format of a correct answer.
INSERT INTO assay_data (compound, measured_target, answer_label) VALUES
  ('O=C1c2c(Cl)c(Cl)c(Cl)c(Cl)c2C(=O)C2(Cl)CC=CCC12Cl (stereo unspecified)', 'A498 renal', 1.0),
  ('OCc1ncc(-c2ccccc2)s1', 'A498 renal', 1.0),
  ('Cn1ncc2c(Sc3ccc(Cl)cc3)ncnc21', 'A498 renal', 1.0),
  ('O=S1(=O)CCC(N(/N=C/c2ccco2)c2ccccc2)C1 (stereo unspecified)', 'A498 renal', 1.0),
  ('O=C(Nc1ccc2c(c1)OCCO2)C(=O)c1c[nH]c2ccccc12', 'A498 renal', 0.0);

(Q) Determine whether this compound has growth no lower than 30%: `COc1ccc(C(=O)n2nc(/C=C/c3ccc(O)c(OC)c3)cc2/C=C/c2ccc(O)c(OC)c2)cc1`
(A) 0.0

###

- Test system: HCC-2998 colon
- test-name: NCI-60 one-dose screen, 48 h (100 = growth as untreated, 0 = no growth, -100 = all killed)
- assay-conditions: 10 µM unless noted
The panel holds about 83,000 compounds, 20% with a hit somewhere; the sample as a whole holds those more often.
// reported growth per item
Give the number; % is assumed, so skip it.

See these solved cases before continuing.
INSERT INTO assay_data (molecule, readout_kind, measured_value) VALUES
  ('O=[N+]([O-])c1cccc(-c2nc3sccn3c2-c2ccnc(NCCCNS(=O)(=O)c3ccc(Cl)cc3)n2)c1', 'growth', 116),
  ('COc1ccc(C2=CC(c3cc(OC)c(OC)c(OC)c3)NC(=O)N2)cc1OC (stereo not given)', 'growth', 18.7),
  ('Cc1ccc(CSC(=N)N)cc1C', 'growth', 100);

(Q) Tell me its growth on HCC-2998 colon: C=C1CCC2C(C)(CO)C(O)CCC2(C)C1C/C=C1/C(=O)OCC1Oc1ccccc1C (stereo not given)
(A) 125

(Q) State growth (HCC-2998 colon) of `CCCCCCCC/C=C/CCCCCCCC1=NC(C)(C)CN1C(C)(C)CO` .
(A) -93.4

(Q) Determine reported growth for `COc1ccc(S(=O)(=O)n2ccc(-c3ccc4c(c3)CCC(C)(C)O4)n2)cc1OC` ; test system: HCC-2998 colon.
(A) 78.9

(Q) System HCC-2998 colon. Read-out growth. Item `COc1cc(NC(N)=NCCC(C)(C)c2ccc(C(F)(F)F)cc2)ncc1C#N` . Report value.
(A) -77.8

(Q) Report growth under test system HCC-2998 colon for CCCCCCCCCCCCCCCCCCNC(=O)[C@H]1CSC(c2ccc(OC)cc2O)N1 (stereo not given in full) .
(A) 76.7

(Q) Find growth for `Cc1cc(N/N=C/c2nc(-c3ccccc3)oc2C)c2cc(Cl)ccc2n1` on HCC-2998 colon and write it down.
(A) -77.4

(Q) Tell me its growth on HCC-2998 colon: `Cc1ccc2ccccc2c1C[n+]1ccccc1`
(A) 95.2

###

- System: UO-31 renal
- test-name: NCI-60 one-dose screen, 48 h (100 = growth as untreated, 0 = no growth, -100 = all killed)
- assay-conditions: 10 µM unless noted
Compounds without any hit were thinned out: in the full panel of roughly 83,000, 20% have a hit.
Binary call on growth: condition met from 80% upward, condition not met beneath that.

Record excerpt, results attached:
INSERT INTO assay_data (molecule, answer_label) VALUES
  ('C=C1CCC2C(C)(CO)C(O)CCC2(C)C1CC(NCc1ccccc1)C1=CCOC1=O (stereo not given)', 'condition met'),
  ('Cc1ccc2nc(-c3cc4c([nH]c5ccccc54)c(-c4ccc(F)c(F)c4)n3)[nH]c2c1', 'condition not met'),
  ('COc1ccc(S(=O)(=O)NCCCNc2nccc(-c3c(-c4cccc([N+](=O)[O-])c4)nc4sccn34)n2)cc1', 'condition not met'),
  ('Fc1ccc(Nc2nc(NCCNc3ccnc4cc(Cl)ccc34)nc(N3CCOCC3)n2)cc1', 'condition not met'),
  ('O=C(NCCCNc1nccc(-n2ccc3cccnc32)n1)c1c(F)cccc1F', 'condition met');

(Q) I'd appreciate it if you could say whether `CCCCOc1ccc(/C=C2/SC(N3CCCC3)=NC2=O)cc1` has growth at least equal to 80%.
(A) condition met

(Q) Quick check, growth >= 80%? `Cc1ccc(S(=O)(=O)NCCNc2cc(-c3cn(C(C)(C)C)nc3-c3cccc(O)c3)ccn2)cc1`
(A) condition not met

(Q) API: above_or_equal(metric=growth, cutoff=80%) for item `COc1cc(/C=C/C(=O)/C=C/c2cc(OC)c3c(c2)OCO3)cc2c1OCO2`
(A) condition met

(Q) hey, is growth for this one >= 80%? `COc1cc(NC(=O)SC2=NCCS2)cc(OC)c1`
(A) condition met

(Q) Assess whether reported growth for CCC(C)/C(=C\C#N)NCCCN/C(=C/C#N)C(C)CC (stereo not given) sits at 80% or higher.
(A) condition met

###

- System: MOLT-4 leukemia
- test-name: NCI-60 one-dose screen, 48 h
- assay-conditions: 10 µM unless noted
Compounds without any hit were thinned out: in the full panel of roughly 83,000, 20% have a hit. The source made the active and inactive calls. Rule for the calls: active = growth percent below 10; inactive = the rest.
Tick one outcome: active, inactive

INSERT INTO results (chemical_smiles, answer_label) VALUES
  ('COc1ccc(-c2nc(/C=N/Nc3cc(C)nc4ccc(Cl)cc34)c(C)o2)cc1', 'active'),
  ('COc1ccc(Nc2ncccc2C(=O)NCc2cn(Cc3cccc(Oc4ccccc4)c3)nn2)c(OC)c1', 'inactive'),
  ('CC(C)C1=CC2=C(C=O)C[C@@H]3[C@](C)(CCC[C@@]3(C)C(=O)OCC#CCN3CCCC3)[C@H]2CC1', 'inactive'),
  ('CCNc1nc(S(=O)(=O)CC)nc2ccccc12', 'inactive');

(Q) Please share the test call associated with `O=C(CCl)N(C1CCCCC1)C1CCCCC1` .
(A) inactive

(Q) Outcome logged for `NC(=O)c1c(NC(=S)Nc2ccc(OC(F)(F)F)cc2)sc2c1CCC1(C2)OCCO1` in this assay:
(A) inactive

(Q) Fill in: this test's call for `C/C(=C\c1ccc(OCC(=O)O)c(Cl)c1Cl)[N+](=O)[O-]` is ___
(A) inactive

(Q) What classification did `COc1cc(C(=O)/C=C/c2c(C)n([O-])c3ccc(C(F)(F)F)cc3[n+]2=O)cc(OC)c1OC` end up with in this test?
(A) inactive

(Q) How did this test come out for `COc1cc(/C=C/C(=O)c2c(C)nc3ccccc3c2C)ccc1OCCCCOc1cc2c(cc1OC)C(=O)N1CCC[C@H]1C=N2` ?
(A) active

(Q) Hey, what did the test say about `CCN(CC)CCOc1ccc(Cl)c(C)c1` ?
(A) inactive

###

- Test system: UACC-257 melanoma
- test-name: NCI-60 one-dose screen, 48 h
- assay-conditions: 10 µM unless noted
This is part of a sample that, as a whole, favours compounds with a hit. Of some 83,000 tested, about 20% had one in any assay. Activity calls are given as the source filed them. How the source made its calls: active means growth percent below 10; inactive means the rest.
# valid calls are active, inactive; nothing else

INSERT INTO results (compound, answer_label) VALUES
  ('Nc1cc2c([nH]c[n+]2CC#CCCl)c(SCC#CCCl)n1', 'active'),
  ('COc1cc2c(cc1O)CCN1C[C@@H](CC(C)C)[C@@H](O)C[C@@H]21', 'inactive'),
  ('CN(C)c1ncnc2c1ccn2C1OC(CO)C(O)C1O (stereo not drawn)', 'inactive'),
  ('OC(c1cc2cc(Br)ccc2c2cc(Br)ccc12)C1CCCCN1 (stereo not drawn)', 'active'),
  ('COc1cccc(-c2nc3sccn3c2-c2ccnc(NCCCNS(=O)(=O)c3ccc(F)cc3)c2)c1', 'inactive'),
  ('COC(=O)c1cccc2c1N(C)c1c(cccc1C(=O)OC)CC2', 'inactive'),
  ('CCCOC(=O)n1cccc1', 'inactive'),
  ('O=[N+]([O-])c1ccc(/C=C/C2(CCl)OCCO2)cc1', 'inactive');

(Q) What did the test return for `C=C[C@@H]1C[C@H](O)Cc2cc(F)ccc2N1` ?
(A) inactive

(Q) What did the test return for Cc1csc(NC(c2ccc(Br)cc2)c2c(C)nc3ccccn23)n1 (stereo not drawn) ?
(A) inactive

(Q) Fill in: this test's call for CCCCCCCCCCCCNC(=O)[C@H]1CSC(c2cc(Br)cs2)N1 (stereo partly drawn) is ___
(A) active

(Q) In this assay, the call recorded for `O=C(Nc1cccc(-n2cc(-c3ccncc3)c(-c3ccc(Cl)c(O)c3)n2)c1)Nc1ccc(Cl)c(C(F)(F)F)c1` was what?
(A) active

(Q) // outcome(item) with item = O=C1Nc2ccc(Cl)cc2C12Nc1cc(Cl)ccc1S2 (stereo not drawn)
(A) inactive
